# METHOD: xn = mol fraction of the nth substance listed, in the solute-free solvent
# DETAILS: 293.15 K; x2 = 0.03225
QUANTITY: solubility (g/100 g solution)
I'd appreciate a reply containing only the number, no unit.

Examples from the recorded data:
MOLECULE	solubility (g/100 g solution)
CN1CCC(N(Cc2cccs2)c2ccccc2)CC1 + CCCO + O	0.203
CN1CCC(N(Cc2cccs2)c2ccccc2)CC1 + CC(C)O + O	0.173
Nc1cccc2ccncc12 + CCCO + O	0.124

Given the entry Cc1ccc2cc(Br)ccc2n1 + CC(C)O + O , report its measured solubility (g/100 g solution).
0.0741

Look up solubility (g/100 g solution): Nc1cccc2ccncc12 + CC(C)O + O
0.109
